- Target: T1, human GIP receptor (human, UniProt P48546 22-466)
- T1 sequence (looked up): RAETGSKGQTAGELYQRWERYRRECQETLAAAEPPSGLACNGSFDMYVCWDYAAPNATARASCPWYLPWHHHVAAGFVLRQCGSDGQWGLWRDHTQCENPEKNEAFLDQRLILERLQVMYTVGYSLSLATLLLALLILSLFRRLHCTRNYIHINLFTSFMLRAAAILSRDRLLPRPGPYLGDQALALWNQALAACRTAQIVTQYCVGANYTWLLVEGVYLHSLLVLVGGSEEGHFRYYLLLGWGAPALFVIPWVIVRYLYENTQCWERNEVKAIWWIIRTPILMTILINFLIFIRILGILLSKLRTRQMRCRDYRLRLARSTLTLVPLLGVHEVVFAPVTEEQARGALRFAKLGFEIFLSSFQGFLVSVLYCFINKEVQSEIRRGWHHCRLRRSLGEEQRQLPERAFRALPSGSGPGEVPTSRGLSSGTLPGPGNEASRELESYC
- Assay text: cell-based or functional assay
Bridges are numbered along the chain shown (N, C = ends). Where no end group is shown, it is not given here. [ ]: non-standard residue; d: D form. The star is where a group is joined. Acetyl(2-(4-imidazolyl)) = O=C(Cc1c[nH]cn1)*; Aib = CC(C)(N)C(=O)O
Please use criterion met for in vitro Activity Compared to Native Peptide (%), vs GIP under 8% and criterion not met for everything else, ties included.

Q: For Y[Aib]QGTFTSDYSKYLDERACKDFVQWLLDHHPSSGQPPPS (bridge 16-20; not fully specified (C-terminus)) [triple agonist of SEQ ID NO: 71] , is the recorded in vitro Activity Compared to Native Peptide (%), vs GIP below the cut-off of 8%?
A: criterion not met

Q: For Y[Aib]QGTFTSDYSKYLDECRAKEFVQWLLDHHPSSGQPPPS-NH2 (bridge 16-20; also: ring type not given here) [triple agonist of SEQ ID NO: 21] , is the recorded in vitro Activity Compared to Native Peptide (%), vs GIP below the cut-off of 8%?
A: criterion not met

Q: For [Acetyl(2-(4-imidazolyl))][Aib]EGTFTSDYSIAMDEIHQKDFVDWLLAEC (bridge 16-20; not fully specified (C-terminus)) [triple agonist of SEQ ID NO: 84] , is the recorded in vitro Activity Compared to Native Peptide (%), vs GIP below the cut-off of 8%?
A: criterion met

Q: For [Acetyl(2-(4-imidazolyl))][Aib]QGTFTSDYSIAMDEIACKDFVNWLLNTK (bridge 16-20; not fully specified (C-terminus)) [triple agonist of SEQ ID NO: 61] , is the recorded in vitro Activity Compared to Native Peptide (%), vs GIP below the cut-off of 8%?
A: criterion met

Q: For H[Aib]QGTFTSDYSKYLDECRQKEFVQWLLNGGPSSGAPPPSG (bridge 16-20; not fully specified (C-terminus)) [triple agonist of SEQ ID NO: 37] , is the recorded in vitro Activity Compared to Native Peptide (%), vs GIP below the cut-off of 8%?
A: criterion met

Q: For [Acetyl(2-(4-imidazolyl))][Aib]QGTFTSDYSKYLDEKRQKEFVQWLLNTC (bridge 16-20; not fully specified (C-terminus)) [triple agonist of SEQ ID NO: 81] , is the recorded in vitro Activity Compared to Native Peptide (%), vs GIP below the cut-off of 8%?
A: criterion met
